These data points were gathered from patent US20240417446A1.

Kindly supply the reported Neutralizing Power, SARS-CoV-2 Pseudovirus Neutralization Assay values for the records listed here.
Molecular target: SARS-CoV-2 spike protein on pseudovirus (SARS-CoV-2, UniProt P0DTC2 14-1273)
Assay: cell-based or functional assay
Report as a plain number; the unit % is understood.

stdin: Record request: Neutralizing Power, SARS-CoV-2 Pseudovirus Neutralization Assay value, item NCI-CoV-S2A9 (VNAR) VNAR: ARVDQTPRSVTKETGESLTINCVLRDASYALGRTCWYRKKSGSTNEESISKGGRYVETVNSGSKSFSLRINDLTVEDGGTYRCGVSTPWSCDYGPLCFYAACGDGTVVTVN
stdout: 90

stdin: Record request: Neutralizing Power, SARS-CoV-2 Pseudovirus Neutralization Assay value, item NCI-CoV-S2G8 (VNAR) VNAR: ARVDQTPQTITKETGESLTINCVLRDSNCPLSNTYWYRKKSGSTNEESISKGGRYVETVNSGSKSFSLRINDLTVEDSGTYRCKVRTHWSICWEMGLEPNYDVYGGGTVVTVN
stdout: 50

stdin: Record request: Neutralizing Power, SARS-CoV-2 Pseudovirus Neutralization Assay value, item NCI-CoV-CGH3 (VHH) VHH: AVQLVESGGGLVQPGGSLRLSCAASGFTFSSYAMGWVRQAPGKGLEWISAINSGGDIRYYADSVKGRFTISRDNAKNTLYLQMNSLKPEDTAVYYCATDDEILSYGLGTSFDYWGQGTQVTVSS
stdout: 30

stdin: Record request: Neutralizing Power, SARS-CoV-2 Pseudovirus Neutralization Assay value, item NCI-CoV-S3A10 (VNAR) VNAR: ARVDQTPRSVTKETGESLTINCVLRDASYALGSTCWYRKKSGSTNEESISKGGRYVETVNSGSKSFSLRINDLTVEDGGTYRCGRIQNTKAVLLPCVYAACGDGTVVTVN
stdout: 60
